Reported half-life values for the following compounds.
- Assay summary: Plasma stability, mouse
- Format: in vitro ADME
- Reported conditions: C57BL6, mouse, pooled plasma; species profiling; read-out: Plasma T1/2 Mouse (C57BL6)
Endpoint label: half-life

# Compound, Result value
records = [
    ("CC(C)CC(C(=O)Nc1ccc(C(F)(F)F)cc1)P(=O)(O)O (stereo not drawn)", "> 4 h"),
    ("CC(C)CC(C(=O)Nc1ccc(F)cc1)P(=O)(O)O (stereo not drawn)", "> 4 h"),
    ("Cc1ccc(NC(=O)C(CC(C)C)P(=O)(O)O)cc1 (stereo not drawn)", "> 4 h"),
]

----------
- System tested: ColH-PD (Hathewaya histolytica)
- Sequence (Q46085 331-721 limits assumed): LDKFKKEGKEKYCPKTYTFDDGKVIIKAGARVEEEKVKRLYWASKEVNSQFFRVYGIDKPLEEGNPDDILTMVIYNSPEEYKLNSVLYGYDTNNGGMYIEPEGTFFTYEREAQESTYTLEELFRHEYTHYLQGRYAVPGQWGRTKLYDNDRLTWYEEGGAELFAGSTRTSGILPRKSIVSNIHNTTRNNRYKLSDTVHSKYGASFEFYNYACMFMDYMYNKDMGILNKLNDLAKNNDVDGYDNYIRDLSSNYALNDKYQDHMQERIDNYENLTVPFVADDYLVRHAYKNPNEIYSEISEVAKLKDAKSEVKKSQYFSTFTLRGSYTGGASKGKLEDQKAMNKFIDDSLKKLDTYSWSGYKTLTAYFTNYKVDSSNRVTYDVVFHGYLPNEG
- Assay summary: biochemical
- Format: biochemical, Clostridium histolyticum
- Reported conditions: read-out: % inhibition ColH-PD @1 µM
Endpoint label: inhibition at 1 µM

# Molecule, Result value
data = [
    ("CC(C)CC(C(=O)Nc1ccc(C(F)(F)F)cc1)P(=O)(O)O (centres unmarked) [Compound 4b]", "14%"),
    ("Cc1ccc(NC(=O)C(CC(C)C)P(=O)(O)O)cc1 (centres unmarked) [Compound 4a]", "< 10%"),
    ("COc1ccc(NC(=O)C(CC(C)C)P(=O)(O)O)cc1 (centres unmarked) [Compound 4f]", "< 10%"),
    ("Cc1ccc(NC(=O)C(CC(C)C)P(=O)(O)O)c(F)c1 (centres unmarked) [Compound 4d]", "< 10%"),
    ("CC(C)CC(C(=O)Nc1ccc(Cl)c(Cl)c1)P(=O)(O)O (centres unmarked) [Compound 4c]", "< 10%"),
]

----------
- System tested: LasB (Pseudomonas aeruginosa, UniProt Q02RJ6)
- Construct: made in house
- Sequence (Q02RJ6 198-498): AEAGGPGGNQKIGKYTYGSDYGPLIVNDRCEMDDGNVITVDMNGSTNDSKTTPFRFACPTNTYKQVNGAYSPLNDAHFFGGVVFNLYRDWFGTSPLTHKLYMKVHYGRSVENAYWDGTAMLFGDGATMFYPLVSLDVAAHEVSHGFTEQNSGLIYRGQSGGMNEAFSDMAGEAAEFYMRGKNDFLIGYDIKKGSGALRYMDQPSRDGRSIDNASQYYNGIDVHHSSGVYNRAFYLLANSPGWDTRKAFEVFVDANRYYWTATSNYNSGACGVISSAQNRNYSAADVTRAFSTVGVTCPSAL
- Assay summary: biochemical
- Assay type: biochemical
- Reported conditions: FRET-based assay; read-out: LasB IC50
pIC50: −log10 of the molar value.
Reported pIC50 values for the following molecules.
Endpoint label: pIC50

# Molecule, Result value
data = [
    ("CC(C)CC(C(=O)Nc1ccc2ccccc2c1)P(=O)(O)O (stereo not shown)", 7.20),
    ("CC(=O)c1ccc(NC(=O)C(CC(C)C)P(=O)(O)O)cc1 (stereo not shown)", 7.39),
    ("CC(C)CC(C(=O)Nc1cccc2ccccc12)P(=O)(O)O (stereo not shown)", 7.16),
    ("COc1ccc(NC(=O)C(CC(C)C)P(=O)(O)O)cc1 (stereo not shown)", 7.29),
    ("CC(C)CC(C(=O)Nc1ccc(Br)cc1)P(=O)(O)O (stereo not shown)", 7.31),
    ("Cc1ccc(NC(=O)C(CC(C)C)P(=O)(O)O)c(C)c1 (stereo not shown)", 7.07),
    ("Cc1ccc(NC(=O)C(CC(C)C)P(=O)(O)O)cc1 (stereo not shown)", 7.29),
    ("Cc1ccc(NC(=O)C(Cc2ccccc2)P(=O)(O)O)cc1 (stereo not shown)", 6.86),
    ("CC(C)CC(C(=O)Nc1ccc(Cl)cn1)P(=O)(O)O (stereo not shown)", 6.30),
    ("Cc1ccc(NC(=O)C(CC(C)C)P(=O)(O)O)c(F)c1 (stereo not shown)", 6.94),
    ("O=C(Nc1ccc(C(F)(F)F)cc1)C(Cc1ccccc1)P(=O)(O)O (stereo not shown)", 6.99),
    ("CC(C)CC(C(=O)Nc1ccc2c(c1)CCC2)P(=O)(O)O (stereo not shown)", 7.35),
    ("CC(C)CC(C(=O)Nc1ccc(Cl)cc1)P(=O)(O)O (stereo not shown)", 7.32),
    ("CC(C)CC(C(=O)Nc1ccc(F)cc1)P(=O)(O)O (stereo not shown)", 7.03),
    ("CC(C)CC(C(=O)Nc1ccc(C(F)(F)F)cc1)P(=O)(O)O (stereo not shown)", 7.58),
    ("Cc1ccc(NC(=O)C(CC2CCCCC2)P(=O)(O)O)cc1 (stereo not shown)", 5.69),
]
